// reported GI50 per item
test system: UACC-257; test: NCI tumour cell line growth inhibition, 48 h
Calls of active or inactive are those of the source. Cut-off read from the data, not from the text of the source: active = GI50 up to about 1.1 µM and inactive = higher.

Sample answers from the record:
C=CCN1C2Cc3cc(OC)c(OC)cc3C1Cc1cc(OC)c(OC)cc12	> 100 µM (inactive)
COC(=O)/C=C/C1C(C(=O)OC)C2(C(=O)OC)CCC1(C(=O)OC)N2 (configuration not stated)	> 100 µM (inactive)
C[C@]12C(=O)C=CCC1=CC[C@@H]1[C@@H]2[C@H]2CC3(O)C(=O)O[C@@]4(C)[C@H]5C[C@@]6(C)[C@@H]7[C@@]2(O)[C@]1(OC[C@H]6C(=O)O5)O[C@]734 (some centres not stated)	59.4 µM (inactive)
C/C(CC(=O)Nc1ccc([N+](=O)[O-])cc1)=N/N=C(N)N	> 100 µM (inactive)

Tested on UACC-257, the item Nc1c([N+](=O)[O-])nc(Cl)c2nncn12 showed GI50 equal to > 100 µM (inactive)

Record Clc1ccc(NCc2nnc(COc3ccc(OCc4nnc(CNc5ccc(Cl)cc5)o4)c(Cl)c3)o2)cc1 has UACC-257 GI50 equal to 43.1 µM (inactive)

# GI50 measured on UACC-257 for item O=C(Nc1ccc2ccccc2c1)c1cc2cc(CCl)ccc2oc1=O = > 100 µM (inactive)

Known value: UACC-257 GI50 of the compound Cc1cccc2c1Sc1ccccc1C2NC(=O)CCN(C)C (configuration not stated) equals > 100 µM (inactive)

----------
test system: RPMI-8226; assay: NCI tumour cell line growth inhibition, 48 h
The source made the active and inactive calls. Rule as the data show it: active = GI50 up to about 1.1 µM and inactive = higher.
Attribute: GI50

compound Cc1ccc(S(=O)(=O)N/N=C/c2c(O)ccc3ccccc23)cc1 , GI50 observed: 26.7 µM (inactive)

GI50 reported for this compound COc1ccc(Cc2coc3ccccc3c2=O)cc1OC : 33.3 µM (inactive)

The recorded GI50 for CCOC(=O)C(Cc1cc(OC)c(CC(C(=O)OCC)C(=O)OCC)cc1OC)C(=O)OCC is > 100 µM (inactive)

----------
Entries annotated with measured GI50
test system: NCI-H226; experiment: NCI tumour cell line growth inhibition, 48 h
Calls of active or inactive are those of the source. Rule as the data show it: active = GI50 up to about 1.1 µM and inactive = higher.

N#CC(NCc1cccc(CNC(C#N)c2ccccc2)c1)c1ccccc1 (stereo unspecified)	> 100 µM (inactive)

The compound listed as CN(C)S(=O)(=O)c1ccc2c(c1)/C(=C1/Nc3ccccc3C1=O)C(=O)N2 shows GI50 equal to 25.2 µM (inactive)

What the record says about CC(C)NC(=O)OCc1c(COC(=O)NC(C)C)c(-c2cc[n+](COC(=O)Cc3ccccc3)cc2)n2c1CCC2 : GI50 is > 100 µM (inactive)

----------
system: U-251; experiment: NCI tumour cell line growth inhibition, 48 h
Active and inactive are the calls of the source. Rule as the data show it: active = GI50 up to about 1.1 µM and inactive = higher.
Below, each of the compounds is paired with its reported GI50 value.

Example entries and their recorded answers appear below.
Cc1ccc(-c2n[nH]c(CC#N)n2)cc1	> 100 µM (inactive)
CCOC(=O)C(Cc1cc(OC)c(CC(C(=O)OCC)C(=O)OCC)cc1OC)C(=O)OCC	> 66.4 µM (inactive)
CC(C)c1cc(C(F)(F)F)nc(NNc2nc(C(C)C)cc(C(F)(F)F)n2)n1	45.8 µM (inactive)
COc1ccc(/C=N/NC(=O)NCCCN(C)C)cc1	> 100 µM (inactive)
O=C1/C(=C/c2ccccc2O)N=C(c2ccccc2)N1c1nc2ccccc2s1	10.1 µM (inactive)
NS(=O)(=O)c1nnc(NS(=O)(=O)C(F)(F)F)s1	> 100 µM (inactive)
CC(=O)N1CCC(=O)/C(=C/c2ccccc2)C1	17.1 µM (inactive)
Cc1sc(N)c(S(=O)(=O)c2ccccc2)c1C	> 100 µM (inactive)
COc1ccc(O)cc1	> 100 µM (inactive)

Next up:
Value of GI50 reported for the compound COc1ccc2c(c1)C(=O)C1CCC(=O)N1C2c1ccc2c(c1)OCO2 (stereo not given) is 15.2 µM (inactive)
